System: OVCAR4
protocol-details: Euclidean distance of Cell Painting phenotypic profile (signed KS, 77 features) to DMSO centroid (dimensionless distance); 5 or 10 uM (library dependent); higher = stronger phenotypic change vs DMSO (phenoactivity)
conditions: 48 h
Where a name gives a salt, the structure may show the parent alone.
Reported Euclidean distance values are given for each entry in this list.
Simply state the number, no unit and no words.

Use these answered entries as a reference point.
COc1cc(C(C)=O)ccc1OCCCN1CCC(c2noc3cc(F)ccc23)CC1 [Iloperidone]    1.87
Cc1cncc(CN2CCC(=C3c4ccc(Cl)cc4CCc4cccnc43)CC2)c1 [Rupatadine Fumarate]    1.27
CC(C)CC(N)=O [Isovaleramide]    1.81
CC(C)(C)c1nc(-c2cccc(NS(=O)(=O)c3c(F)cccc3F)c2F)c(-c2ccnc(N)n2)s1 [Dabrafenib Mesylate]    1.47
O=C(NCC(O)CO)c1c(I)c(C(=O)NCC(O)CO)c(I)c(N(CCO)C(=O)CO)c1I (centres undefined) [Ioversol]    1.14

query: Kindly indicate its recorded Euclidean distance. Item: CC(C)(C)c1cnc(CSc2cnc(NC(=O)C3CCNCC3)s2)o1
result: 3.27

query: Kindly indicate its recorded Euclidean distance. Item: O=C(O)C(O)C(O)C(=O)O (centres undefined) [Tartaric acid]
result: 0.632

query: Kindly indicate its recorded Euclidean distance. Item: O=C(c1ccc(F)cc1)N1CCC[C@H](c2nc(-c3ccc(F)cc3)no2)C1
result: 0.832

query: Kindly indicate its recorded Euclidean distance. Item: COC(=O)c1cc(OC)c2c(c1-c1c(CO)cc(OC)c3c1OCO3)OCO2 [Bicyclol]
result: 1.06

Each recorded value in this set is attributed to the supplement of paper PMC10127200.
